measurement-target: T1, glycolaldehyde (GA)-modified bovine serum albumin (Bos taurus, UniProt P02769, modified by glycolaldehyde (GA-pyridine forms on the ε-amino group of Lys residues); sites not given)
T1 construct: bovine serum albumin; The scFvs are directed against GA-pyridine, a modified lysine; also called GA-BSA; source: BSA (25 mg/mL) incubated with 50 mM glycolaldehyde at 37 °C for 12 h, dialysed with PBS
T1 sequence (P02769 25-607): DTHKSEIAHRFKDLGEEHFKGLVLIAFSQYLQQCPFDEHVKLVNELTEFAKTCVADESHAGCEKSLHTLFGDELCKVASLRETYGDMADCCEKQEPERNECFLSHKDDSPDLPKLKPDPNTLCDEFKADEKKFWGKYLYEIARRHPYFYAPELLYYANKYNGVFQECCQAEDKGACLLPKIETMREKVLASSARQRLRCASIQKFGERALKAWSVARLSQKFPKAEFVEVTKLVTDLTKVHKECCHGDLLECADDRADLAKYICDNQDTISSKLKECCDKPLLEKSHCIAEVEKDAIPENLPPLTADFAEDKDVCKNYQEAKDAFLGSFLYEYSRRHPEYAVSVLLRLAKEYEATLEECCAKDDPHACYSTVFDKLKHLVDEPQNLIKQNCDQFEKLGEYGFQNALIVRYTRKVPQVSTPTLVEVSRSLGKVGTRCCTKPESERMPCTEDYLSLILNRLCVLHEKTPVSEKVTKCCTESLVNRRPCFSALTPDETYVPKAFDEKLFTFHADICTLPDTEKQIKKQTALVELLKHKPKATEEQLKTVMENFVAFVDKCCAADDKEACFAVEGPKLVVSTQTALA
run-description: ELISA; phage ELISA: GA-BSA coated on a 96-well plate, scFv display phage clones added for 1 h at 25 °C, detected with HRP-conjugated anti-M13 antibody
condition-info: one partner purified
assay-readout: binding result

1. AGE73scFv displayed on phage (scFv, V domains shown, VH of AGE73scFv; as the VH of m1; (Gly-Gly-Gly-Gly-Ser)3 linker; VL of AGE73scFv; as the VL of m1) VH: QVKLQQSGPSLVKPSQTLSLTCSVTGDSITSGYWNWIRKFPGNKFEYLGYISYSGRTYYNPSLKSRISITRDTSKNQYYLQLNSVTTEDTATYYCSRPYYRYDYAIDYWGQGTTVTVSS VL: DIELTQSPAIMSASLGERVTMTCTASSSVSSSYLHWYQQKPGSSPKLWIYSTSNLASGVPARFSSSGSGTSYSLTISRMEAEDAATYYCQQSRKVPYTFGGGTKLEIK | binds
2. AGE78scFv displayed on phage (scFv, V domains shown, VH of AGE78scFv; (Gly-Gly-Gly-Gly-Ser)3 linker; VL of AGE78scFv) VH: QVKLQESGPSLVKPSQTLSLTCSVTGDSITSGYWNWIRKFPGNKFEYLGYISYSGRTYYNPSLKSRISITRDTSKNQYYLHLNSVTTEDTATYYCTRPYHRYDYAIDFWGQGTTVTVSS VL: DIELTQSPAIMSASPGEKVTMTCSASSSVSYMHWYQQKPGFSPKLLIYRTSNLASGVPARFSGSGSGTSYSLTIGTMEAEDVATYYCQQGSSIPYTFGGGTKLEIK | binds
3. 73MuL-S30P displayed on phage (scFv, V domains shown, as the VH of m1 (AGE73scFv); (Gly-Gly-Gly-Gly-Ser)3 linker; as the VL of m1 (AGE73scFv); source: second library, error-prone PCR of the VL of AGE73scFv) VH: QVKLQQSGPSLVKPSQTLSLTCSVTGDSITSGYWNWIRKFPGNKFEYLGYISYSGRTYYNPSLKSRISITRDTSKNQYYLQLNSVTTEDTATYYCSRPYYRYDYAIDYWGQGTTVTVSS VL: DIELTQSPAIMSASLGERVTMTCTASSSVSPSYLHWYQQKPGSSPKLWIYSTSNLASGVPARFSSSGSGTSYSLTISRMEAEDAATYYCQQSRKVPYTFGGGTKLEIK | binds
